# Experimental protocol: Selectivity index, ratio of CC50 for cytotoxicity against human HepG2 cells to IC50 for […] activity against Plasmodium falciparum 3D7
# Type: toxicity, cell-based
# Recorded conditions: read-out: Ratio CC50/IC50
Give selectivity ratio for every item shown.

*Q* What value of selectivity ratio has been reported for the following compound? "COc1ccc(N2C(=O)c3cccc(N)c3C2=O)cc1"
*A* > 36

*Q* Next record, please: "COc1ccc(N2C(=O)c3cccc(NCc4ccccc4)c3C2=O)cc1"
*A* > 59

###

# Experimental protocol: Cytotoxicity against human U-937 cells assessed as inhibition of cell growth incubated for 24 hrs by Celltiter-Glo assay
# Assay type: toxicity, cell-based
Parameter: CC50 at 24 h (µM)
# unit: µM | format: bare number

*Q* What value of CC50 at 24 h has been reported for the following compound? Cc1ccc2c(c1)C(=O)N(C(Cc1ccccc1)C(=O)NC(Cc1ccccc1)C(O)CN1CCN(CC(O)C(Cc3ccccc3)NC(=O)C(Cc3ccccc3)N3C(=O)c4ccc(C)cc4C3=O)CC1)C2=O (stereo unspecified)
*A* 26.4

These entries and their values trace back to ChEMBL document CHEMBL5241051.
